- Assayed System: ATX (Homo sapiens)
- Construct: conditioned serum-free medium (CCM) from MDA-MB-435 cells as the source of ATX; endogenous in cells; host or cells: MDA-MB-435 cells (about 10x concentrated conditioned serum-free medium)
- Assay Procedure: ATX inhibition assay (FS-3 substrate)
- Assay type: biochemical
- Experimental Conditions: preliminary screen; FS-3 hydrolysis at one hour, normalized to vehicle control, mean±S.D.; same values given at 10 μM in Table 5
So I've got a bunch of compounds here, and I need their % Response values.
Reply with just the number (in %).

What value of % Response has been recorded for this entry: O=C(Nc1ccc2c(O)c(N=Nc3ccccc3)c(S(=O)(=O)[O-])cc2c1)Nc1ccc2c(O)c(N=Nc3ccccc3)c(S(=O)(=O)[O-])cc2c1.[Na+].[Na+] [compound 16223]
77

Same question, "Nc1c(N=Nc2ccc([N+](=O)[O-])cc2)c(S(=O)(=O)[O-])cc2cc(S(=O)(=O)[O-])c(N=Nc3ccc(-c4ccc(N=Nc5ccc(O)c(C(=O)[O-])c5)cc4)cc3)c(O)c12.[Na+].[Na+].[Na+]" this time
55

Next record, please: "O=C1C(c2[nH]c3ccc(S(=O)(=O)O)cc3c2O)=Nc2ccc(S(=O)(=O)O)cc21"
88

Now the compound Nc1c(N=Nc2ccc([N+](=O)[O-])cc2)c(S(=O)(=O)O)cc2cc(S(=O)(=O)O)c(N=Nc3ccc(-c4ccc(N=Nc5ccc(O)cc5)cc4)cc3)c(O)c12.[Na+] [compound 47752]
52
